system: Enterobacter; assay: In vitro antibacterial activity against Enterobacter relative to thienamycin; assay type: functional
Examples of compounds with documented Relative potency follow.
Answer using only a numeral; do not append any unit.

The following compounds have reported results that may help.
What value of Relative potency has been reported for the following compound? CSCc1ccc[n+](Cc2ccc(C3=C(C(=O)[O-])N4C(=O)[C@H]([C@@H](C)O)[C@H]4C3)cc2)c1
10.6

Now consider C[C@@H](O)[C@H]1C(=O)N2C(C(=O)[O-])=C(c3ccc(C[n+]4ccc(N5CCCCC5)cc4)cc3)C[C@H]12 and answer again.
2.5

Now consider C[C@@H](O)[C@H]1C(=O)N2C(C(=O)[O-])=C(c3ccc(C[n+]4ccccc4N)cc3)C[C@H]12 and answer again.
6.1

Moving on to another compound below.
What value of Relative potency has been reported for the following compound? C[C@@H](O)[C@H]1C(=O)N2C(C(=O)O)=C(c3ccc(CN4CCCC4)cc3)C[C@H]12
5.7

====

test system: Enterococcus; experiment: In vitro antibacterial activity against Enterococcus relative to thienamycin; format: functional
Examples of compounds with documented Relative potency follow.

The following compounds have reported results that may help.
What value of Relative potency has been reported for the following compound? C[C@@H](O)[C@H]1C(=O)N2C(C(=O)[O-])=C(c3ccc(C[n+]4ccc(N5CCSCC5)cc4)cc3)C[C@H]12
4.9

Now consider C[C@@H](O)[C@H]1C(=O)N2C(C(=O)[O-])=C(c3ccc(C[n+]4ccc5ccccc5c4N)cc3)C[C@H]12 and answer again.
9.2

Now consider C[C@@H](O)[C@H]1C(=O)N2C(C(=O)[O-])=C(c3ccc(C[n+]4ccccc4)cc3)C[C@H]12 and answer again.
13

Others:
What value of Relative potency has been reported for the following compound? C[C@@H](O)[C@H]1C(=O)N2C(C(=O)[O-])=C(c3ccc(C[n+]4ccc(CN)cc4)cc3)C[C@H]12
7

Now consider C[C@@H](O)[C@H]1C(=O)N2C(C(=O)[O-])=C(c3ccc(C[n+]4ccccc4N)cc3)C[C@H]12 and answer again.
21.1

Now consider C[C@@H](O)[C@H]1C(=O)N2C(C(=O)O)=C(c3ccc(CN4CCCCC4)cc3)C[C@H]12 and answer again.
6.1

Now consider C[C@@H](O)[C@H]1C(=O)N2C(C(=O)O)=C(c3ccc(CN4CCN(C)CC4)cc3)C[C@H]12 and answer again.
5.7

====

test system: Klebsiella; assay: In vitro antibacterial activity against Klebsiella relative to thienamycin; format: functional
Endpoint: Relative potency

The following compounds have reported results that may help.
What value of Relative potency has been reported for the following compound? C[C@@H](O)[C@H]1C(=O)N2C(C(=O)[O-])=C(c3ccc(C[n+]4cccc(C(=O)N(C)C)c4)cc3)C[C@H]12
1.1

Now consider CSCc1ccc[n+](Cc2ccc(C3=C(C(=O)[O-])N4C(=O)[C@H]([C@@H](C)O)[C@H]4C3)cc2)c1 and answer again.
3.7

Now consider C[C@@H](O)[C@H]1C(=O)N2C(C(=O)[O-])=C(c3ccc(C[n+]4ccccc4N)cc3)C[C@H]12 and answer again.
2.6

Now consider CO[C@@]1(NC(=O)Cc2cccs2)C(=O)N2C(C(=O)O)=C(COC(N)=O)CS[C@@H]21 and answer again.
0.04

Now consider CSc1ccc[n+](Cc2ccc(C3=C(C(=O)[O-])N4C(=O)[C@H]([C@@H](C)O)[C@H]4C3)cc2)c1 and answer again.
3.7

Others:
What value of Relative potency has been reported for the following compound? C[C@@H](O)[C@H]1C(=O)N2C(C(=O)[O-])=C(c3ccc(C[n+]4ccccc4)cc3)C[C@H]12
4.3

Now consider C[C@@H](O)[C@H]1C(=O)N2C(C(=O)[O-])=C(c3ccc(C[n+]4ccc(N5CCCC5)cc4)cc3)C[C@H]12 and answer again.
0.8
